The origin of these recorded values is paper PMC6522510.

Reported MV4-11 %inh values for the following molecules.
Tested on: MV4-11
Parameters: species or system AML cell lines (8); Primary HTS, single concentration about 10 uM, Cell Titer Glo viability; log10 luminescence, per cent inhibition relative to cycloheximide control
Conditions: 72 h, relative to cycloheximide control, log10 luminescence; inhibitor
Counter-ions that a name gives are not always drawn.
Give the number; % is assumed, so skip it.

1. CCC[C@@H]1CC2=CC(=O)CC[C@]2(C)[C@H]2CC[C@@]3(C)[C@@H](CC[C@@]3(O)CCC(=O)O)[C@H]12 [SJ000546509-1, RU 28318] ... 0.6325
2. [O-][S+]1CCN(Cc2ccc(-c3ccc4ncnc(Nc5ccc(OCc6ccccc6)c(F)c5)c4c3)o2)CC1 [SJ000573188-1, U14859/145/2] ... 1.608
3. Cc1cc(C)c2c(n1)sc1c(N)ncnc12 [SJ000581012-1] ... -4.498

Prompt: For the molecule shown here, N#Cc1ccc2c(-c3ccnc(NC4CC4)n3)c(-c3ccc(F)cc3)nn2c1 [SJ000573143-1, U15304/34/1] , give the reported MV4-11 %inh.
Response: -1.164

Prompt: Same thing, different molecule: Cn1c(=O)c(Oc2ccc(F)cc2F)cc2cnc(NC(C)(C)CO)nc21 [SJ000580971-1]
Response: 3.201

Prompt: Also C[C@]12CCC(=O)C=C1C=C[C@@H]1[C@@H]2CC[C@@]2(C)[C@H]1CC[C@@]21CCC(=O)O1 [SJ000286091-3, CANRENONE] ?
Response: 4.82

Prompt: And then CCCCc1ncc(/C=C(\Cc2cccs2)C(=O)O)n1Cc1ccc(C(=O)O)cc1 [SJ000556755-1, EPROSARTAN MESYLATE] , what is it?
Response: -5.649

* * *

Test system: CMK
Set-up: species or system AML cell lines (8); Primary HTS, single concentration about 10 uM, Cell Titer Glo viability; log10 luminescence, per cent inhibition relative to cycloheximide control
Settings: 72 h, relative to cycloheximide control, log10 luminescence; inhibitor
readout: CMK %inh (%)
Numbers only; they are read as %.

Answered cases to consult:
1) CC(=O)[C@H]1CC[C@H]2[C@@H]3CC=C4C[C@@H](O)CC[C@]4(C)[C@H]3CC[C@]12C ... -1.238
2) O=C1Cc2c([nH]c3ccc(Br)cc23)-c2ncccc2N1 ... -2.288
3) C[C@@H](Oc1cc(-n2cnc3ccc(OCC4CCN(C)CC4)cc32)sc1C(N)=O)c1ccccc1Cl ... 58.58

Prompt: Could you share which CMK %inh value was measured for CCCCCNC(=O)[C@@H]1CCCN2C(=O)CC[C@H](NC(=O)[C@H](Cc3ccc(OP(=O)(O)O)cc3)NC(C)=O)C(=O)N12 ?
Response: -6.908

Prompt: Another compound to check: CN(c1ccc(NC(=O)Nc2c(Cl)cccc2Cl)cc1)c1ccnc(Nc2cccc(CS(C)(=O)=O)c2)n1
Response: 37.49

Prompt: Same read-out for COc1cccc(-n2ncc3c(N/N=C/c4ccc(F)cc4)ncnc32)c1 ?
Response: -2.994

* * *

Tested on: CMS
Parameters: species or system AML cell lines (8); Primary HTS, single concentration about 10 uM, Cell Titer Glo viability; log10 luminescence, per cent inhibition relative to cycloheximide control
Conditions: 72 h, relative to cycloheximide control, log10 luminescence; inhibitor
Reported CMS %inh values for the following molecules.
The reply should consist of the numeric value with the unit placed after it.

For orientation, consider the following solved cases.
1. Nc1nccc(-c2c(-c3ccc(F)cc3)nn3cc(C(F)(F)F)ccc23)n1 ... -0.8913%
2. Oc1ncnc2[nH]ncc12 ... -3.837%
3. CO/N=C(\C(=O)N[C@@H]1C(=O)N2C(C(=O)O)=CCS[C@H]12)c1csc(N)n1 [SJ000565169-1, CEFTIZOXIME SODIUM] ... -3.365%

Prompt: Value lookup for CMS %inh; key = CO[C@H]1O[C@@H]2O[C@@]3(C)CC[C@H]4[C@H](C)CC[C@@H]([C@H]1C)[C@@]24OO3
Response: 7.594%

Prompt: Do the same for NC(N)=Nc1nc(CSCC/C(N)=N/S(N)(=O)=O)cs1 please
Response: 0.7839%

Prompt: Proceed to O=c1c(Oc2ccc(F)cc2F)cc2cnc(NC3CCOCC3)nc2n1CCCO
Response: 2.142%

Prompt: Do the same for CCOC(=O)C(C)Oc1cccc2c(=O)n(CC(=O)Nc3ccc4c(c3)OCCO4)ccc12 (centres unmarked) please
Response: -1.631%

Prompt: Record: Nc1c(C(=O)c2cccc(OCCN3CCOCC3)c2)cnn1-c1ccc(F)cc1
Response: -1.582%

Prompt: Another molecule to look at: Cc1c(C2=C(c3cn(C)c4ccccc34)C(=O)NC2=O)c2ccccc2n1C
Response: -2.63%

Prompt: What about C[C@@H](O)[C@@H]1NC(=O)[C@H](CCCCN)NC(=O)[C@@H](Cc2c[nH]c3ccccc23)NC(=O)[C@H](Cc2ccccc2)NC(=O)[C@@H](NC(=O)[C@H](N)Cc2ccccc2)CSSC[C@@H](C(=O)N[C@H](CO)[C@@H](C)O)NC1=O [SJ000520506-1, OCTREOTIDE ACETATE] ?
Response: 0.6202%

Prompt: Cool, now CS(=O)(=O)CCCn1c(=O)c(Oc2ccc(F)cc2F)cc2cnc(NC3CCOCC3)nc21
Response: -2.642%

* * *

Test system: CHRF288-11
Set-up: species or system AML cell lines (8); Primary HTS, single concentration about 10 uM, Cell Titer Glo viability; log10 luminescence, per cent inhibition relative to cycloheximide control
Conditions: 72 h, relative to cycloheximide control, log10 luminescence; inhibitor
Quick reference: CHRF288-11 %inh of the listed items.
Entry rule: numbers only, all in %.

Some solved cases for reference:
1. Cn1cc(C2=C(c3cccc4ccccc34)C(=O)NC2=O)c2ccccc21 ... 6.432
2. CO/N=C(\C(=O)N[C@@H]1C(=O)N2C(C(=O)O)=CCS[C@H]12)c1csc(N)n1 [SJ000565169-1, CEFTIZOXIME SODIUM] ... -3.529

Prompt: For the compound shown here, CC1=C(C(=O)Nc2ccc3[nH]ncc3c2)C(c2ccc(Cl)c(Cl)c2)CC(=O)N1 (stereo not shown) , give the reported CHRF288-11 %inh.
Response: 13.93

Prompt: Follow-up entry: Cn1cc(C2=C(c3cn(CCO)c4ccccc34)C(=O)NC2=O)c2ccccc21
Response: 72.88

* * *

Test system: U937
Experiment: cells
Design: species or system AML cell lines (8); Secondary HTS, 10-point dose-response in triplicate, Cell Titer Glo viability, four-parameter fit EC50
Settings: Homo sapiens, U-937, 72 h, read-out: U937
pEC50: −log10 of the molar value.
readout: pEC50

Reference set, count: 3
1) Cc1noc(-c2ccc(-c3ccc(CC(=O)O)cc3)cc2)c1NC(=O)O[C@H](C)c1ccccc1Cl ... < 5.00
2) CC(C)Oc1ccc(-c2cnc3c(-c4ccnc5ccccc45)cnn3c2)cc1 ... < 5.00
3) Nc1nccc2c1ncn2[C@@H]1C=C(CO)[C@@H](O)[C@H]1O ... < 5.00

Prompt: Need pEC50, item COc1cc2ncnc(-n3nc(-c4ccccn4)nc3N)c2cc1OC
Response: < 5.00

Prompt: Request: Cc1cc2nc(NCCCO)n(CC(=O)c3cc(C(C)(C)C)c(O)c(C(C)(C)C)c3)c2cc1C
Response: < 5.00

Prompt: Here is the next compound: Nc1nc(NC2CC2)cc(-c2cccc(Cl)c2Cl)n1
Response: 5.52

Prompt: Now the same for COc1cc(N2CCC(N3CCN(C)CC3)CC2)ccc1Nc1ncc(Cl)c(Nc2ccccc2S(=O)(=O)C(C)C)n1
Response: < 5.00

Prompt: Now consider COc1cc2c(cc1-c1c(C)noc1C)ncc1[nH]c(=O)n([C@H](C)c3ccccn3)c12 and answer again.
Response: 5.49

Prompt: Also CSCC[C@@H](NC(=O)c1ccc(CNCc2cnc[nH]2)cc1-c1ccccc1C)C(=O)OCc1ccccc1 ?
Response: 5.70

Prompt: Please do the same for C=CC(=O)Nc1cccc(Nc2nc(Nc3ccc(OCCOC)cc3)ncc2F)c1 as well.
Response: 5.32

Prompt: Same again, this time with CCc1c(O)cc(O)c(C(=O)c2ccc(OCCN3CCOCC3)c(OC)c2)c1CC(=O)N(CCOC)CCOC
Response: < 5.00

* * *

Tested on: MV4-11
Set-up: species or system AML cell lines (8); Primary HTS, single concentration about 10 uM, Cell Titer Glo viability; log10 luminescence, per cent inhibition relative to cycloheximide control
Conditions: 72 h, relative to cycloheximide control, log10 luminescence; inhibitor
Where a name gives a salt, the structure may show the parent alone.
MV4-11 %inh values for the compounds below.
Report as a plain number; the unit % is understood.

Recorded results for 4 compounds are shown here.
1. COc1cc2ncn(-c3cc(OCc4ccccc4S(C)(=O)=O)c(C#N)s3)c2cc1OC ... 0.8968
2. C/C(=C\c1ccc(C(=O)O)cc1)c1ccc2c(c1)C(C)(C)CCC2(C)C ... 20.2
3. CCN[C@H]1C[C@H](C)S(=O)(=O)c2sc(S(N)(=O)=O)cc21 [SJ000287570-2, DORZOLAMIDE HYDROCHLORIDE] ... -1.46
4. COc1cccc(C2=C(c3c(C)n(C)c4ccccc34)C(=O)NC2=O)c1 ... 0.7267

Prompt: What value of MV4-11 %inh has been reported for the following compound? CS(=O)(=O)CCNCc1nc(-c2ccc3ncnc(Nc4ccc(OCc5cccc(C(F)(F)F)c5)cc4)c3c2)cs1
Response: 64.74

Prompt: Also need O=C(O)c1cc2cc(O)c(O)cc2c(C(=O)c2ccc(O)c(O)c2)n1 , thanks.
Response: 0.9533

Prompt: What about NC(=O)c1cc(-c2ccc(F)cc2)cc(-c2ccncc2)c1N ?
Response: -5.414
